valueType: melting point

>>> print(df.to_string())
                                querysmiles  reportedmeasurement
0  C/C(=N\NC(N)=S)c1ccc(Nc2nc(N)nc(N)n2)cc1             > 230 °C
1  C/C(=N\Nc1nc(-c2ccc(Br)cc2)cs1)c1ccc(Nc2nc(N)nc(N)n2)cc1        226 to 230 °C
2  C/C(=N\Nc1nc(-c2ccc(C)cc2)cs1)c1ccc(Nc2nc(N)nc(N)n2)cc1        231 to 233 °C
3  C/C(=N\Nc1nc(-c2ccc(Cl)cc2)cs1)c1ccc(Nc2nc(N)nc(N)n2)cc1        237 to 239 °C
4  C/C(=N\Nc1nc(-c2ccc(F)cc2)cs1)c1ccc(Nc2nc(N)nc(N)n2)cc1        223 to 225 °C
5  C/C(=N\Nc1nc(-c2ccc(I)cc2)cs1)c1ccc(Nc2nc(N)nc(N)n2)cc1        248 to 251 °C
6  C/C(=N\Nc1nc(-c2ccccc2)cs1)c1ccc(Nc2nc(N)nc(N)n2)cc1             > 300 °C

###

System: mouse L929 fibroblast
Test: Cell viability assay (MTT), L929
Format: cell-based
Details: 0.9 µg/ml, 24 h
valueType: Viability L929

                                querysmiles           targetentity  reportedmeasurement
0  C/C(=N\Nc1nc(-c2ccc3[nH]c(=O)oc3c2)cs1)c1ccc(Nc2nc(N)nc(N)n2)cc1  mouse L929 fibroblast              103.88%
1  C/C(=N\Nc1nc(-c2ccc(NS(C)(=O)=O)cc2)cs1)c1ccc(Nc2nc(N)nc(N)n2)cc1  mouse L929 fibroblast               98.90%
2  CC(=O)Nc1ccc(-c2csc(N/N=C(\C)c3ccc(Nc4nc(N)nc(N)n4)cc3)n2)cc1  mouse L929 fibroblast              102.34%
3  C/C(=N\Nc1nc(-c2cc3ccccc3oc2=O)cs1)c1ccc(Nc2nc(N)nc(N)n2)cc1  mouse L929 fibroblast               98.99%

###

Tested on: Toxoplasma gondii BK strain
Test: T. gondii tachyzoite intracellular proliferation in VERO host cells ([3H]uracil incorporation)
Format: cell-based
Conditions: Toxoplasma gondii; 31.2 µg/ml, VERO host cells
Recorded activity at 31.2 µg/mL for the following molecules
valueType: activity at 31.2 µg/mL

>>> print(df.to_string())
                                querysmiles  reportedmeasurement
0  C/C(=N\Nc1nc(-c2ccc([N+](=O)[O-])cc2)cs1)c1ccc(Nc2nc(N)nc(N)n2)cc1                77.5%
1  C/C(=N\Nc1nc(-c2ccc(I)cc2)cs1)c1ccc(Nc2nc(N)nc(N)n2)cc1                75.1%
2  C/C(=N\Nc1nc(-c2ccc(Br)cc2)cs1)c1ccc(Nc2nc(N)nc(N)n2)cc1                62.8%
3  C/C(=N\Nc1nc(-c2ccc(F)cc2)cs1)c1ccc(Nc2nc(N)nc(N)n2)cc1                77.6%
4  C/C(=N\Nc1nc(-c2ccc(Cl)c(Cl)c2)cs1)c1ccc(Nc2nc(N)nc(N)n2)cc1                41.1%
5  C/C(=N\Nc1nc(-c2ccc(C)cc2)cs1)c1ccc(Nc2nc(N)nc(N)n2)cc1                58.6%
6  C/C(=N\Nc1nc(-c2ccc(Cl)cc2)cs1)c1ccc(Nc2nc(N)nc(N)n2)cc1                52.2%
7  C/C(=N\Nc1nc(-c2ccccc2)cs1)c1ccc(Nc2nc(N)nc(N)n2)cc1                49.4%
8  C/C(=N\NC(N)=S)c1ccc(Nc2nc(N)nc(N)n2)cc1                57.8%
